- tgt: DNA gyrase subunit B (Mycobacterium smegmatis, UniProt P0C559)
- Sequence (P0C559 whole entry): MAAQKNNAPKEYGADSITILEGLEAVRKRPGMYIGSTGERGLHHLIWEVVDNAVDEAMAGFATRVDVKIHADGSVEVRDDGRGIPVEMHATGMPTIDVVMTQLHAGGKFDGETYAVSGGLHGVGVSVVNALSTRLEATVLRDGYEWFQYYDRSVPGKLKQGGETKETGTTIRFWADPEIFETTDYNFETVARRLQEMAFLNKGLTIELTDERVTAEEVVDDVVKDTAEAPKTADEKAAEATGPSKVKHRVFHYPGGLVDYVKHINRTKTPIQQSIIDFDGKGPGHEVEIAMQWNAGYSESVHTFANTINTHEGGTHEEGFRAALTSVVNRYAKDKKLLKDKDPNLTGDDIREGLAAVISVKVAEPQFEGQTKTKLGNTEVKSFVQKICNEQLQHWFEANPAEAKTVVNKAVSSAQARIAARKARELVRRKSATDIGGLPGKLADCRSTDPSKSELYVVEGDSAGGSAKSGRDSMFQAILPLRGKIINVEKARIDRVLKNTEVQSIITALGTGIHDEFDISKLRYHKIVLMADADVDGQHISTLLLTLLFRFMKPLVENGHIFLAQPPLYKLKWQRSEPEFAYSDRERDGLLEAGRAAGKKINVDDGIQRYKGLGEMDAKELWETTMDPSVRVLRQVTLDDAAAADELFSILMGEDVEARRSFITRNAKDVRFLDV
- test_description: Inhibition of Mycobacterium smegmatis DNA gyrase B expressed in Escherichia coli BL21 (DE3) pLysS cells assessed as reduction in ATPase activity incubated for 100 mins by inorganic phosphate detection assay
Parameter pIC50: see the listing below.
Units for pIC50: none; it is -log10 of a concentration expressed in mol/L.

Completed entries (count: 3):
| smi | pIC50 |
| --- | --- |
| O=C(O)c1cnc2ccc(C(F)(F)F)cc2c1Nc1ccc(NCCCN2CCOCC2)cc1 | 5.10 |
| COc1ccc2ncc(C(=O)NN)c(Nc3ccc(OCCCN4CCOCC4)cc3)c2c1 | 4.98 |
| CCOC(=O)c1cnc2ccc(F)cc2c1Nc1ccc(NCCCN2CCOCC2)cc1 | 4.95 |

Need pIC50 of CCOC(=O)c1cnc2ccc(C(F)(F)F)cc2c1Nc1ccc(NCCCN2CCN(CC)CC2)cc1 , thanks.
5.05

====

- tgt: DNA gyrase subunit A/DNA gyrase subunit B (Mycobacterium tuberculosis (strain ATCC 25618 / H37Rv), UniProt P9WG45+P9WG47)
- Sequence (P9WG45 whole entry): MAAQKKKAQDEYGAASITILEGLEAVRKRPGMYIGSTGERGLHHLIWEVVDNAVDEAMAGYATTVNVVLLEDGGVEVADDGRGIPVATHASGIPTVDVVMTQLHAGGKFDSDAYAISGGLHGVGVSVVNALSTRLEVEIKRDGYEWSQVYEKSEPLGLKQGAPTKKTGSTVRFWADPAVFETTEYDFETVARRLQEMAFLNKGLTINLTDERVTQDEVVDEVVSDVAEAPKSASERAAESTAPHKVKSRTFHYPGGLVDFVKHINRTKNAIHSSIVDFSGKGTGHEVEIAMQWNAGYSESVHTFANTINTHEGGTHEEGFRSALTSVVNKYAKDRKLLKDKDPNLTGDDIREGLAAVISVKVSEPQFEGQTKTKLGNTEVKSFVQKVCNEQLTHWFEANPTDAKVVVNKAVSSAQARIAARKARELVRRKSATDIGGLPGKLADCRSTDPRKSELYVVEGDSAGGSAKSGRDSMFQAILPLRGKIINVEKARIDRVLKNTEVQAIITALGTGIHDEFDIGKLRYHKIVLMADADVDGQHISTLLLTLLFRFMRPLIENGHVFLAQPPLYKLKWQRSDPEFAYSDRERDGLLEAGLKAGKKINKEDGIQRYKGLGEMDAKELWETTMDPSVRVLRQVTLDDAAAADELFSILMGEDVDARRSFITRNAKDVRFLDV
- Sequence (P9WG47 whole entry): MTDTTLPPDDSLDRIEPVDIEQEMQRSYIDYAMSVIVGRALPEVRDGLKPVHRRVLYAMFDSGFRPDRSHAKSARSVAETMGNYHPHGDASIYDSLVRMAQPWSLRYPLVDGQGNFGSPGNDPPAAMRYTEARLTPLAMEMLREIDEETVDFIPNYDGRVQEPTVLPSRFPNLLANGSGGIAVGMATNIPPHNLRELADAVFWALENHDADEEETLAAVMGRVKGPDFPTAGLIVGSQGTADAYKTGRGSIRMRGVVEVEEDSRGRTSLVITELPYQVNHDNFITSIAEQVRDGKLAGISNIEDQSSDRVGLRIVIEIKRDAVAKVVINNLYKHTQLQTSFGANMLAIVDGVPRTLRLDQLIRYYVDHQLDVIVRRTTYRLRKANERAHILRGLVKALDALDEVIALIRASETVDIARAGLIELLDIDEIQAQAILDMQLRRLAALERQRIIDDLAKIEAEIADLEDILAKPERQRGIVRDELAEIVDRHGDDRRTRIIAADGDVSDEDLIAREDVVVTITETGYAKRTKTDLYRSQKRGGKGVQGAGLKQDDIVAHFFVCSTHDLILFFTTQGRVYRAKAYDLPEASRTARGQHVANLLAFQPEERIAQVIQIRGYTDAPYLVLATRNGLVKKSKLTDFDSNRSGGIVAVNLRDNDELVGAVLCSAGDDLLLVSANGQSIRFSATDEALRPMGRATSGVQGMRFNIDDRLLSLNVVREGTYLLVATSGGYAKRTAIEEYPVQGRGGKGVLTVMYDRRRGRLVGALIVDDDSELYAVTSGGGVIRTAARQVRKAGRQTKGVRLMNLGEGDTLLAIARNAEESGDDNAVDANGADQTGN
- test_description: Inhibition of DNA gyrase GyrA/GyrB in Mycobacterium tuberculosis incubated for 30 mins assessed as reduction in supercoiling of relaxed relaxed pBR322 DNA by ethidium bromide staining based agarose gel electrophoresis method
Recorded log10(IC50), one value per entry.
Kindly note that the scale is log10 and the underlying IC50 is in µM.

| smi | result_number |
| --- | --- |
| CCOC(=O)c1cnc2ccc(C(F)(F)F)cc2c1Nc1ccc(NCCCN2CCN(CC)CC2)cc1 | 0.58 |
| NNC(=O)c1cnc2ccccc2c1Nc1ccc(OCCCN2CCOCC2)cc1 | -0.14 |

For the compound shown here, CCOC(=O)c1cnc2ccc(OC)cc2c1Nc1ccc(NCCCN2CCN(CC)CC2)cc1 , give the reported log10(IC50).
0.93

Item CCN1CCN(CCCNc2ccc(Nc3c(C(=O)NN)cnc4ccc(F)cc34)cc2)CC1 has what recorded log10(IC50)?
-0.09

// log10(IC50) lookup, key: CCOC(=O)c1cnc2ccccc2c1Nc1ccc(NCCCN2CCOCC2)cc1
0.94

// query log10(IC50) value for entry NNC(=O)c1cnc2ccc(F)cc2c1Nc1ccc(NCCCN2CCOCC2)cc1
1.03

What does the record list as log10(IC50) for CCOC(=O)c1cnc2ccc(OC)cc2c1Nc1ccc(OCCCN2CCOCC2)cc1 ?
1.12

Given the compound CCOC(=O)c1cnc2ccc(C(F)(F)F)cc2c1Nc1ccc(NCCCN2CCOCC2)cc1 , what is its reported log10(IC50)?
0.49

Using the record for COc1ccc2ncc(C(=O)NN)c(Nc3ccc(OCCCN4CCOCC4)cc3)c2c1 , report its log10(IC50).
1.02

// query log10(IC50) value for entry CCN1CCN(CCCOc2ccc(Nc3c(C(=O)O)cnc4ccccc34)cc2)CC1
1.01

Name the recorded log10(IC50) for O=C(O)c1cnc2ccccc2c1Nc1ccc(OCCCN2CCOCC2)cc1 .
1.34

What measured log10(IC50) goes with NNC(=O)c1cnc2ccccc2c1Nc1ccc(NCCCN2CCOCC2)cc1 ?
1.36

Which log10(IC50) value is on record for CCOC(=O)c1cnc2ccc(F)cc2c1Nc1ccc(NCCCN2CCN(CC)CC2)cc1 ?
0.90

Entry CCOC(=O)c1cnc2ccc(F)cc2c1Nc1ccc(OCCCN2CCN(CC)CC2)cc1 : reported log10(IC50) = ?
1.07

Which log10(IC50) value belongs to O=C(O)c1cnc2ccc(F)cc2c1Nc1ccc(NCCCN2CCOCC2)cc1 ?
0.65

Looking for the measured log10(IC50) of O=C(O)c1cnc2ccccc2c1Nc1ccc(NCCCN2CCOCC2)cc1 , can you help?
0.75

// query log10(IC50) value for entry COc1ccc2ncc(C(=O)NN)c(Nc3ccc(NCCCN4CCOCC4)cc3)c2c1
1.18

Could you share which log10(IC50) value was measured for CCOC(=O)c1cnc2ccc(F)cc2c1Nc1ccc(NCCCN2CCOCC2)cc1 ?
0.66

Tell me the measured log10(IC50) of CCOC(=O)c1cnc2ccc(F)cc2c1Nc1ccc(OCCCN2CCOCC2)cc1 , please.
0.88
